src = patent US9409884B2

The entries below come with measured pEC50 values attached.
target: AMPK; experiment: AMPK activation, enzyme-linked immunosorbent assay; type: biochemical; details: Table 11, compounds of Table 4
pEC50: −log10 of the molar value.

Molecule	pEC50
O=C(N[C@H]1CCN(Cc2ccncc2)C1)c1ccc(C(=O)N2CCN(c3ccc(Cl)cc3)CC2)cn1	5.30 to 6.00
O=C(NC1CCN(Cc2ccc(OC(F)(F)F)cc2)C[C@H]1F)c1ccc(C(=O)N2CCN(c3ccc(S(=O)(=O)N4CCCC4)cc3)CC2)nc1 (stereo partly shown)	> 6.30
CC(C)S(=O)(=O)c1ccc(N2CCN(C(=O)c3ccc(C(=O)NC4CCN(Cc5ccc(OC(F)(F)F)cc5)C[C@H]4F)cn3)CC2)cc1 (stereo partly shown)	> 6.30

So what does the record say about pEC50 for O=C(NC1CCN(Cc2ccc(OC(F)(F)F)cc2)C[C@H]1F)c1ccc(C(=O)N2CCN(Cc3ccc(S(=O)(=O)N4CCCC4)cc3)CC2)nc1 (stereo partly shown) ? > 6.30

Now give it for N#Cc1ccc(CN2CC[C@H](NC(=O)c3ccc(C(=O)N4CCN(c5ccc(Cl)cc5)CC4)cn3)C2)cc1 too. 6.00 to 6.30

Now give it for CS(=O)(=O)c1ccc(CN2CCN(C(=O)c3ccc(C(=O)NC4CCN(Cc5ccc(C#N)cc5)CC4F)cn3)CC2)cc1 (stereo not shown) too. 5.30 to 6.00

Now give it for N#Cc1ccc(CN2CCC(NC(=O)c3ccc(C(=O)N4CCN(Cc5ccc(C#N)cc5)CC4)cn3)CC2)cc1 too. > 6.30

Now give it for N#Cc1ccc(CN2CCC(NC(=O)c3ccc(C(=O)N4CCN(c5ccc(S(=O)(=O)N6CCCC6)cc5)CC4)nc3)CC2)cc1 too. 6.00 to 6.30

Now give it for N#Cc1ccc(CN2CCC(NC(=O)c3ccc(C(=O)N4CCN(Cc5ccc(C(F)(F)F)cc5)CC4)cn3)CC2)cc1 too. > 6.30

Now give it for O=C(N[C@H]1CCN(Cc2ccc(F)cc2)C1)c1ccc(C(=O)N2CCN(c3ccc(Cl)cc3)CC2)cn1 too. 5.30 to 6.00

Now give it for N#Cc1ccc(CN2CCC(NC(=O)c3ccc(C(=O)N4CCN(Cc5ccc(F)cc5)CC4)cn3)CC2)cc1 too. > 6.30

Now give it for CCNS(=O)(=O)c1ccc(CN2CCN(C(=O)c3ccc(C(=O)NC4CCN(Cc5ccc(C#N)cc5)CC4)cn3)CC2)cc1 too. 5.30 to 6.00

Now give it for N#Cc1ccc(CN2CCC(NC(=O)c3ccc(C(=O)N4CCN(Cc5ccc(S(=O)(=O)N6CCCC6)cc5)CC4)nc3)CC2)cc1 too. > 6.30

Now give it for O=C(NC1CCN(Cc2ccc(Cl)cc2)C1)c1ccc(C(=O)N2CCN(c3ccc(Cl)cc3)CC2)cn1 (stereo not shown) too. 5.30 to 6.00

Now give it for O=C(NC1CCN(Cc2ccc(C(F)(F)F)cc2)C1)c1ccc(C(=O)N2CCN(c3ccc(Cl)cc3)CC2)cn1 (stereo not shown) too. 5.30 to 6.00

Now give it for N#Cc1ccc(CN2CCC(NC(=O)c3ccc(C(=O)N4CCN(c5ccc(C(=O)C6CC6)cc5)CC4)nc3)[C@H](F)C2)cc1 (stereo partly shown) too. > 6.30

====

The entries below come with measured EC50 values attached.
biological target: AMPK; assay: AMPK activation, enzyme-linked immunosorbent assay; assay type: biochemical; settings: Table 12, compounds of Table 5

Compound	Readout label	Val
O=C(NC1CCN(Cc2ccccc2)CC1)c1ccc(OC2CCN(Cc3ccc(F)cc3)CC2)c(F)c1 [Compound 5-61]	EC50	< 1000 nM
COc1cc(C(=O)NC2CCN(Cc3ccccc3)CC2)ccc1OC1CCN(S(C)(=O)=O)CC1 [Compound 5-9]	EC50	20000 to 50000 nM
COc1cc(C(=O)NC2CCN(Cc3ccccc3)CC2)ccc1OC1CCN(CCCc2ccccc2)CC1 [Compound 5-7]	EC50	< 1000 nM

Okay, next one:
So what does the record say about EC50 for O=C(NC1CCN(Cc2ccccc2)CC1)c1ccc(OC2CCN(c3ccc(C(F)(F)F)cc3)CC2)c(F)c1 [Compound 5-23] ? < 1000 nM

====

biological target: AMPK; assay: AMPK activation, enzyme-linked immunosorbent assay; type: biochemical; settings: Table 13, compounds of Table 6
Readout label: EC50

Consider the following illustrative entries.
COc1ccc(CN2CCC(NC(=O)c3cc4cc(NC(=O)C5CCN(c6ccc(C#N)cc6)CC5)ccc4o3)CC2)cc1 < 100 nM
COc1ccc(-n2cc(C(=O)Nc3ccc4oc(C(=O)NC5CCN(Cc6ccc(C#N)cc6)CC5)cc4c3)cn2)cc1 100 to 1000 nM
N#Cc1ccc(CN2CCC(NC(=O)c3cc4cc(C(=O)N5CCN(Cc6ccc(S(=O)(=O)C(F)(F)F)cc6)CC5)ccc4o3)CC2)cc1 < 100 nM
COc1ccc(CN2CCC(NC(=O)c3cc4cc(C(=O)N5CCN(Cc6ccc(S(C)(=O)=O)c(C)c6)CC5)ccc4o3)CC2)cc1F < 100 nM
O=C(NC1CCN(Cc2ccncc2)CC1)c1cc2cc(C(=O)N3CCC(Oc4ccc(F)cc4)CC3)ccc2o1 < 100 nM

Okay, next one:
So what does the record say about EC50 for CS(=O)(=O)c1ccc(CN2CCN(C(=O)c3ccc4cc(C(=O)NC5CCN(Cc6ccc(OC(F)(F)C(F)F)cc6)CC5)oc4c3)CC2)cc1 ? < 100 nM

====

target: AMPK; assay: AMPK activation, enzyme-linked immunosorbent assay; type: biochemical; details: Table 13, compounds of Table 6
pEC50: −log10 of the molar value.
The entries below come with measured pEC50 values attached.

Consider the following illustrative entries.
CS(=O)(=O)c1cccc(CN2CCN(C(=O)c3ccc4oc(C(=O)NC5CCN(Cc6ccc(C#N)c(F)c6)CC5)cc4c3)CC2)c1 > 7.00
COc1ccc(CN2CCC(NC(=O)c3cc4cc(C(=O)N5CCN(Cc6ccc(S(=O)(=O)N7CCCC7)cc6)CC5)ccc4o3)CC2)cc1F > 7.00
N#Cc1ccc(CN2CCC(NC(=O)c3cc4cc(NC(=O)C5CCN(Cc6ccc(C#N)c(F)c6)CC5)ccc4o3)CC2)cc1 6.00 to 7.00
N#Cc1ccc(CN2CCC(NC(=O)c3cc4cc(C(=O)N5CCN(c6ccc(F)cc6)CC5)ccc4o3)CC2)cc1 > 7.00
CS(=O)(=O)c1ccc(CN2CCN(C(=O)c3ccc4oc(C(=O)NC5CCN(Cc6cccc(OC(F)(F)F)c6)CC5)cc4c3)CC2)cc1 > 7.00

Okay, next one:
So what does the record say about pEC50 for N#Cc1ccc(CN2CCC(NC(=O)c3cc4cc(NC(=O)c5cnn(Cc6ccc(C#N)cc6)c5)ccc4o3)CC2)cc1 ? 5.00 to 6.00

====

Molecular target: AMPK
Test: AMPK activation, enzyme-linked immunosorbent assay
Type: biochemical
Settings: Table 8, compounds of Table 1
Description: Compounds of Table 1 were assayed for their ability to activate AMPK using an enzyme-linked immunosorbent assay. Compounds of Table 2 were assayed for their ability to activate AMPK using an enzyme-linked immunosorbent assay. Compounds of Table 3 were assayed for their ability to activate AMPK using an enzyme-linked immunosorbent assay. Compounds of Table 4 were assayed for their ability to activate AMPK using an enzyme-linked immunosorbent assay. […]
The entries below come with measured EC50 values attached.

Consider the following illustrative entries.
Compound	EC50
CN(C)c1ccc(CN2CCC(NC(=O)c3ccc(OC4CCN(c5ccc(C(F)(F)F)cc5)CC4)cn3)CC2)cc1 [Compound 1-39]	100 to 500 nM
CC(C)(C)OC(=O)N1CCC(NC(=O)c2cc3ccc(OC4CCN(c5ccc(C(F)(F)F)cc5)CC4)cc3s2)CC1 [Compound 1-140]	500 to 1000 nM
COC(=O)c1ccc(CN2CCC(NC(=O)c3ccc(OC4CCN(c5ccc(C#N)cc5)CC4)cn3)CC2)cc1 [Compound 1-7]	< 100 nM

What EC50 appears in the records for this compound with AMPK? O=C(NC1CCN(Cc2ccc(OC(F)(F)F)cc2)CC1)c1cc2cc(O[C@@H]3CCN(Cc4ccc(Oc5ccc(F)cc5)cc4)C[C@H]3F)ccc2o1 [Compound 1-170] < 100 nM

====

target: AMPK; assay: AMPK activation, enzyme-linked immunosorbent assay; type: biochemical; conditions: Table 8, compounds of Table 1
pEC50: −log10 of the molar value.
Readout label: pEC50

Consider the following illustrative entries.
O=C(NC1CCN(Cc2ccncc2)CC1)c1cncc(OC2CCN(c3ccc(C(F)(F)F)cc3)CC2)c1 > 7.00
CC(C)(C)OC(=O)N1CCC(NC(=O)c2cc3cc(OC4CCN(c5ccc(C(F)(F)F)cc5)CC4)ccc3s2)CC1 > 7.00
N#Cc1ccc(CN2CCC(NC(=O)c3ccc(OC4CCN(c5ccc(C(F)(F)F)cc5)CC4)nc3)CC2)cc1 6.30 to 7.00
O=C(NC1CCN(Cc2cccnc2)CC1)c1ccc(OC2CCN(c3ccc(C(F)(F)F)cc3)CC2)cn1 > 7.00
O=C(NC1CCN(Cc2ccc(C(F)(F)F)cc2)CC1)c1cc2ccc(OC3CCN(c4ccc(C(F)(F)F)cc4)CC3)cc2o1 > 7.00
O=C(NC1CCN(Cc2ccncc2)CC1)c1cc2cc(OC3CCN(c4ccc(C(F)(F)F)cc4)CC3)ccc2s1 > 7.00

So what does the record say about pEC50 for CN(C(=O)c1cc2cc(OC3CCN(c4ccc(C(F)(F)F)cc4)CC3)ccc2o1)C1CCN(Cc2ccncc2)CC1 ? 6.30 to 7.00
